Listed here are compounds together with their documented CTG signal.
System: human peripheral blood mononuclear cells (PBMCs)
Test: Cell proliferation of LPS-challenged PBMCs by CellTiter-Glo (CTG)
Format: cell-based
Conditions: compound 1 μM + 0.1 μg/mL LPS, human PBMCs, 72 h (LPS control 84.50)
Procedure: This study was aimed to test the effect of 12 compounds (THCA, Ia1, Ia5, Ia6, Ia9, Ia11, Ia15, Ia17, Ia24, Ia25, Ia27, and Ia28) on human peripheral blood mononuclear cells (PBMCs) challenged by lipopolysaccharide (LPS) through monitoring multiple inflammatory endpoints. […] LPS (0.1 μg/mL, 100 μL) was added into each well. […] Cell proliferation was detected by CTG.

compound=CCCCCc1cc2c(c(O)c1C(=O)Nc1ccc(N3CCOCC3)cc1)[C@@H]1C=C(C)CC[C@H]1C(C)(C)O2 result="74.83 10^4"

Requested field: CTG signal. Item: CCCCCc1cc2c(c(O)c1C(=O)NCc1ccncc1)[C@@H]1C=C(C)CC[C@H]1C(C)(C)O2
72.49 10^4

Please do the same for CCCCCc1cc2c(c(O)c1C(=O)NCCCN1CCOCC1)[C@@H]1C=C(C)CC[C@H]1C(C)(C)O2 as well.
77.55 10^4

Please do the same for CCCCCc1cc2c(c(O)c1C(=O)O)[C@@H]1C=C(C)CC[C@H]1C(C)(C)O2 [THCA, tetrahydrocannabinolic acid, reference compound] as well.
74.89 10^4

Please do the same for CCCCCc1cc2c(c(O)c1C(=O)NCC1CC1)[C@@H]1C=C(C)CC[C@H]1C(C)(C)O2 as well.
74.73 10^4

Please do the same for CCCCCc1cc2c(c(O)c1C(N)=O)[C@@H]1C=C(C)CC[C@H]1C(C)(C)O2 as well.
74.10 10^4

Please do the same for CCCCCc1cc2c(c(O)c1C(=O)NCCN(C)C)[C@@H]1C=C(C)CC[C@H]1C(C)(C)O2 as well.
80.67 10^4

* * *

system: TNF-α; test: LPS induced cytokine release assay, TNF-α by ELISA in PBMCs; format: cell-based; settings: compound 1 μM + 0.1 μg/mL LPS, human PBMCs, 72 h, ELISA (LPS control 18.16)
Listed here are compounds together with their documented TNF-α.
Give just the numeric value; pg/mL need not be written.

compound="C=C(C)[C@@H]1CCC(C)=C[C@H]1c1c(O)cc(CCCCC)c(C(=O)NCCN2CCCC2)c1O [Ia27]" unit_abbrev=pg/mL number=36.23
compound="CCCCCc1cc2c(c(O)c1C(N)=O)[C@@H]1C=C(C)CC[C@H]1C(C)(C)O2 [Ia1]" unit_abbrev=pg/mL number=16.30
compound="C=C(C)[C@@H]1CCC(C)=C[C@H]1c1c(O)cc(CCCCC)c(C(=O)NCCCN2CCOCC2)c1O [Ia28]" unit_abbrev=pg/mL number=41.38

# evaluate next
Requested field: TNF-α. Item: CCCCCc1cc2c(c(O)c1-c1nnc(C)o1)[C@@H]1C=C(C)CC[C@H]1C(C)(C)O2 [Ia24]
32.33

* * *

test system: U251, brain human glioma; assay: CellTiter-Glo cell viability assay, cancer cell cytotoxicity/anti-proliferation panel (Chempartner); format: cell-based; details: Homo sapiens, U-251, 72 h; read-out: IC50 (absolute IC50)
MEASURED_PROPERTY: IC50 (µM)
Give just the numeric value; µM need not be written.

smiles_text=CCCCCc1cc2c(c(O)c1C(=O)NCCCN1CCOCC1)[C@@H]1C=C(C)CC[C@H]1C(C)(C)O2 measured_on="U251, brain human glioma" measured_property=IC50 number=8.91

# evaluate next
Provide value of IC50 for this record tested with U251, brain human glioma: CCCCCc1cc2c(c(O)c1C(=O)NCCN(C)C)[C@@H]1C=C(C)CC[C@H]1C(C)(C)O2
7.23
